Assayed target: T1, Avi/His-HuIL18BPa (recombinant human IL-18BP isoform A with Avi and poly-His tags) (human, biotinylated with BirA on the Avi tag in some assays)
T1 construct: also called human IL-18BP-Avi-His
T1 chain: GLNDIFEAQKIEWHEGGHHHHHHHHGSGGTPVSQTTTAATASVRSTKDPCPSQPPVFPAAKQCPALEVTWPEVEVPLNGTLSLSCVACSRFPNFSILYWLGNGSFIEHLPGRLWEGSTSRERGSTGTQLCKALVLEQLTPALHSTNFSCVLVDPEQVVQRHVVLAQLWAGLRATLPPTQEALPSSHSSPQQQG
Protocol summary: SPR Carterra LSA, IgG immobilized
Endpoint label: Kd (nM)

{"Binder": "anti-IL18BP antibody BP-05 (antibody, human IgG1, V domains shown) VH: EVQLQQSGPELVKPGASVKIPCKASGYTFTDYNMDWVKQSHGKSLEWIGNINTNNGGTVYNQKFKDKATLTVDKSSSTAYMELRSLTSEDTAVYYCARSDTTVVASRYYALDYWGQGTSVTVSS VL: DIVLTQSPASLAMSLGKRATISCRASESVSIIGTDLIHWYQQKPGQPPKLLIYHASNLETGVPARFSGSGSRTDFTLTIDPVEEDDVAIYYCLQSRKIPPTFGGGTKLEIK", "Result": 1.67}
